- experimentDescription: qHTS assay to identify small molecule agonists of the peroxisome proliferator-activated receptor delta (PPARd) signaling pathway - cell viability counter screen (AID 743211); note: nearly all actives have a fitted effect of over 55% in size
- assaySetup: PPARd-bla HEK293H viability, CellTiter-Glo luminescence, 17 h; series mostly up to 62.6 µM
Inconclusive results are not listed. Activity calls are given as the source filed them. Calls come from the whole dose curve; as a rule, active = well fitted cell-killing curve with a large enough effect in the repeat runs; inconclusive = weak or mixed curves; inactive = no such curve, though single readings can be large or run the other way.
Classes used: true (1) for active, false (0) for inactive

{"compound": "CC1=CCCC(C)(C)C12CCC(C)O2 (centres undefined)", "class": "false (0)"}
{"compound": "O[C@@H](COc1cccc2ncccc12)CN1CCN(C2c3ccccc3[C@@H]3[C@H](c4ccccc42)C3(F)F)CC1 (some centres undefined)", "class": "true (1)"}
{"compound": "O=S(=O)(Oc1ccc(Cl)cc1)c1ccccc1", "class": "false (0)"}
{"compound": "C[C@@H]1C[C@H]2O[C@@]3(O[C@@H]2C(C)(C)O)[C@H](O)[C@@]2(C)[C@@H]4CC[C@H]5C(C)(C)[C@@H](O[C@@H]6OC[C@@H](O)[C@H](O)[C@H]6O)CC[C@@]56C[C@@]46CC[C@]2(C)[C@@H]13", "class": "false (0)"}
{"compound": "OC(CN1CCC(Cc2ccc(F)cc2)CC1)c1ccc(Cl)cc1 (centres undefined)", "class": "false (0)"}
{"compound": "Cc1cccc(Nc2ccccc2)c1", "class": "false (0)"}
{"compound": "CCCC(=O)Nc1ccc(O)c(C(C)=O)c1", "class": "false (0)"}
{"compound": "C=CC(=O)OCCOc1ccccc1", "class": "false (0)"}
{"compound": "Nc1cc(C(=O)O)c(O)c(S(=O)(=O)O)c1", "class": "false (0)"}
{"compound": "OCCNCc1ccccc1", "class": "false (0)"}
{"compound": "CC(=O)[O][Al][O]C(C)=O", "class": "false (0)"}
{"compound": "c1ccc(CNCCNCc2ccccc2)cc1", "class": "false (0)"}
{"compound": "COc1cc2c(cc1OC)C(C(C(=O)N(CCc1ccc(OC)c(OC)c1OC)CCc1ccc(OC)c(OC)c1OC)c1ccccc1)=NCC2 (centres undefined)", "class": "false (0)"}
{"compound": "CCn1cc(C(=O)O)c(=O)c2cnc(N3CCNCC3)nc21", "class": "false (0)"}
{"compound": "Cc1oc(-c2ccccc2)nc1CCOc1cccc2c1ccn2CCC(=O)O", "class": "false (0)"}
{"compound": "CCCCCCCCCCCc1ccccc1", "class": "false (0)"}
{"compound": "CNC(=O)CN(CCN(CCN(CC(=O)[O-])CC(=O)NC)CC(=O)[O-])CC(=O)[O-].O.[Gd+3]", "class": "false (0)"}
{"compound": "CC1=CC=C(C(C)C)CC1", "class": "false (0)"}
{"compound": "OCc1cc(C(O)CNCCCCCCOCCCCc2ccccc2)ccc1O (centres undefined)", "class": "true (1)"}
{"compound": "COc1cc2nc(N(C)CCCNC(=O)C3CCCO3)nc(N)c2cc1OC (centres undefined)", "class": "false (0)"}
{"compound": "CC1OC(=O)C(C)OC1=O (centres undefined)", "class": "false (0)"}
{"compound": "Cc1cccc(C)c1NC(=O)CN(CC(=O)O)CC(=O)O", "class": "false (0)"}
{"compound": "Cc1ncc(CO)c(C=O)c1O", "class": "false (0)"}
{"compound": "COc1ccnc(CS(=O)c2nc3ccc(OC(F)F)cc3[nH]2)c1OC (centres undefined)", "class": "false (0)"}
